Biological target: T1, recombinant human DLL4 (C-terminally His-tagged extracellular domain, R&D Systems) (human, UniProt Q9NR61 25-522, biotinylated in the competition ELISA)
T1 construct: also called rhDLL4; hDLL4
T1 sequence (Q9NR61 25-522): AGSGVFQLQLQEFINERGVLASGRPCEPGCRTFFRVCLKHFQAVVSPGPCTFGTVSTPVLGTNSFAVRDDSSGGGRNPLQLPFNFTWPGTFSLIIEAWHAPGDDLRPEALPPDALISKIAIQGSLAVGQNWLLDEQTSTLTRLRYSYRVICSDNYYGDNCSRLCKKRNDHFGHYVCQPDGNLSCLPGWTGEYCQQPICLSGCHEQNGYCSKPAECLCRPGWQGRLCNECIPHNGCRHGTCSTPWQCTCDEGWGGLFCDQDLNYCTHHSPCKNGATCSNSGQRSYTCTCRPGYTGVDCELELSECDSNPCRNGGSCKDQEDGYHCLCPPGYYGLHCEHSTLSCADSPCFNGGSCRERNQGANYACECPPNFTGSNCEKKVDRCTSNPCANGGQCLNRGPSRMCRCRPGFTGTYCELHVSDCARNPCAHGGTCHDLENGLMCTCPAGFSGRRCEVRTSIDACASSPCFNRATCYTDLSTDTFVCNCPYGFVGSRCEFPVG
Experiment: SPR (Biacore), rhDLL4
measure: kon (M⁻¹ s⁻¹)
Answers are plain numbers, in M⁻¹ s⁻¹.

>>> meas_value("DLLBII101G08 (VHH, not shown: small tags and cut ends, parent VHH; also called 101G08 (wt); 101G8) VHH: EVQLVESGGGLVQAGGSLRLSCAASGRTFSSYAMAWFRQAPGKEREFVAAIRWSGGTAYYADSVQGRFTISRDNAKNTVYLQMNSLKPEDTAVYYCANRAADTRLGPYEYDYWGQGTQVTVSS")
48000

As a next step, examine the binder that follows.
query: Please give the measured kon for this binder: DLLBII129H07 (VHH, not shown: small tags and cut ends) VHH: EVQLVESGGGLVQAGGSLRLSCAASGRTFSSYAMAWYRQAPGKEREYVAAIRWSGGTAYYADSVQGRFTISRDNAKNTVYLQMNSLKPEDTAVYYCANRAPDTRLEPYEYDYWGQGTQVTVSS
result: 160000

Values from patent US20140120095A1
